Test system: Trichoderma virens ATCC 9645
ASSAY REMARKS: growth yield (OD600) with compound + IPBC relative to untreated control; higher = less growth inhibition
CONDITION DESCRIPTION: compound concentration: 100 uM; IPBC concentration: 200 ng/ml; 72 h
Screen size: about 1,300 compounds; about 130 (10%) showed an effect of 50% or more. The full list was thinned out, with strong results kept by preference.
growth yield overview

COMPOUND	growth yield, %
Cc1ncc([N+](=O)[O-])n1CC(C)O (stereo not given) [Secnidazole] + CCCCNC(=O)OCC#CI [3-iodo-2-propynyl butylcarbamate (IPBC)]	94.5
C[C@]12CCC(=O)C(O)=C1CC[C@@H]1[C@@H]2CC[C@]2(C)C(=O)CC[C@@H]12 [Formestane] + CCCCNC(=O)OCC#CI [3-iodo-2-propynyl butylcarbamate (IPBC)]	91.2
N=C(N)NS(=O)(=O)c1ccc(N)cc1 [Sulfaguanidine] + CCCCNC(=O)OCC#CI [3-iodo-2-propynyl butylcarbamate (IPBC)]	92.4
NS(=O)(=O)c1cc2c(cc1Cl)NC(C(Cl)Cl)NS2(=O)=O (stereo not given) [Trichlormethiazide] + CCCCNC(=O)OCC#CI [3-iodo-2-propynyl butylcarbamate (IPBC)]	97.3
O=C1Nc2ccc(Cl)cc2[C@@](C#CC2CC2)(C(F)(F)F)O1 [Efavirenz] + CCCCNC(=O)OCC#CI [3-iodo-2-propynyl butylcarbamate (IPBC)]	73.1
